These data points were gathered from ChEMBL document CHEMBL1147775.

Experiment: Plasma concentration in mice after 1 hr of administration of 50 mg/kg, ip
Format: ADME, organism-based
Design: dose 50 mg/kg, route intraperitoneal
Conditions: mouse
quantity.measured: concentration at 1 h (nM)
Value expressed in nM; do not type the unit.

CCOc1ccc(C(=O)Nc2ccc(-c3nc4ccccc4[nH]3)cc2)cc1Br
530

Switching to the query record.
QUERY: Looking for the measured concentration at 1 h of COc1ccc(C(=O)Nc2ccc(-c3nc4ccccc4[nH]3)cc2)cc1Br , can you help?
RESULT: 2240
